Provenance of the data: patent US20220135638A1

Molecular target: T1, full-length human GIPR (GenBank NM_000164) with an N-terminal FLAG tag on HEK-293T cells (human), P48546
T1 chain: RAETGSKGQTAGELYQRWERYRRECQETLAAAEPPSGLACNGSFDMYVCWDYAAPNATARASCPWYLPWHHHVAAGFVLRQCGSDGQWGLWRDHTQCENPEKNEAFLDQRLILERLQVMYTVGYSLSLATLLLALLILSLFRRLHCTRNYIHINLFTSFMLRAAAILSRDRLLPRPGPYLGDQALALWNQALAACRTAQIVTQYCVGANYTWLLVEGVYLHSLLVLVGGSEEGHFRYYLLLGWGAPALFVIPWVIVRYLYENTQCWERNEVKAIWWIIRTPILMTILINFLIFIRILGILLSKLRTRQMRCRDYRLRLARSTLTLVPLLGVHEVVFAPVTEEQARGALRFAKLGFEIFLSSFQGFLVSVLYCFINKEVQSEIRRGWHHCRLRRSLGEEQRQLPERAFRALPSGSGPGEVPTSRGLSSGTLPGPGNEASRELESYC
Experiment: cell-based or functional assay
Numbered stars: 1 amine (or outer) side, 2 acyl side, 3 side chain; on linkers, the order of the positions; unused ones are H or OH. Square brackets hold non-standard residues; d marks the D form. Primed or numbered codes have the meaning given here. Side chains are listed from the residue outwards. Ends that are not written are not given here. * marks the point of attachment. C20 diacid = O=C(O)CCCCCCCCCCCCCCCCCCC(=O)*; C16 diacid = O=C(O)CCCCCCCCCCCCCCC(=O)*; γGlu = O=C(O)[C@H](CCC(=O)[*:2])N[*:1]; Iva = CC[C@](C)(N)C(=O)O; PEG3′ = not defined here; Aib = CC(C)(N)C(=O)O
assay endpoint: GIP EC50(pM)
The reply should be a number in pM, with the unit left off.

Which GIP EC50(pM) value belongs to Y[Aib]EGTFISDYSIALDR[Aib]HQ[Aib]NFVNW[Iva]LAQRK([PEG3′-PEG3′-C16 diacid])SSGAPPPSR (ends and bridges not checked) [Compound No 911] ?
0.8

Which GIP EC50(pM) value belongs to Y[Aib]EGTFISDYSIALDR[Aib]HQ[Aib]NFVNW[Iva]LAQRPSSGAPPK([Gly-Gly-Gly-Gly-Gly-γGlu-C16 diacid])S (ends and bridges not checked) [Compound No. 459] ?
0.41

Which GIP EC50(pM) value belongs to Y[Aib]EGTFISDYSIALDR[Aib]HQ[Aib]NFVNW[Iva]LAQRPSSGAPPK([PEG3′-γGlu-C16 diacid])S (ends and bridges not checked) [Compound No. 530] ?
0.36

Which GIP EC50(pM) value belongs to Y[Aib]EGTFISDYSIALDR[Aib]HQ[Aib]NFVNW[Iva]LAQRPSSGAK([PEG3′-γGlu-C20 diacid])PPS (ends and bridges not checked) [Compound No. 526] ?
1.5
